System: Trypanosoma cruzi
PROCEDURE_DETAILS: Antiparasitic activity against trypomastigote forms of Trypanosoma cruzi Tulahuen infected in L6 cells after 96 hrs by beta-galactosidase reporter assay
Assay type: functional, organism-based
CONDITION_LABEL: Trypanosoma cruzi, Tulahuen, L6, 96 h; read-out: IC50
MEASURED_ATTRIBUTE: pIC50
The meaning of pIC50 here: minus log10 of the concentration in molar units.

What does the record list as pIC50 for COC(=O)[C@H](CCSC)N(C)C(=O)c1sc(SC(C)C)c(C#N)c1-c1ccc(Cl)cc1 ? 4.89

One more compound: CSCCNC(=O)c1sc(SC(C)C)c(C#N)c1-c1ccc(Cl)cc1 4.89

One more compound: COC(=O)[C@H](CCSC)NC(=O)c1sc(SC(C)C)c(C#N)c1-c1cccc2c1oc1ccccc12 5.12

One more compound: COC(=O)[C@H](CCSC)NC(=O)c1sc(SC(C)C)c(C#N)c1-c1ccc(Cl)cc1 4.82

One more compound: CCOC(=O)c1sc(SC(C)C)c(C#N)c1-c1ccc(Cl)cc1 4.76

One more compound: COC(=O)[C@H](CCSC)NC(=O)c1sc(SC(C)C)c(C#N)c1-c1ccc(O)c(O)c1 4.74

One more compound: CCC(C)Sc1sc(C(=O)N[C@@H](CCSC)C(=O)OC)c(-c2ccc(Cl)cc2)c1C#N (stereo partly specified) 4.85

One more compound: CCC(C)Sc1sc(C(=O)N[C@@H](CCC(N)=O)C(=O)OC(C)(C)C)c(-c2ccc(Cl)cc2)c1C#N (stereo partly specified) 4.77

One more compound: COC(=O)[C@H](CCSC)NC(=S)c1sc(SC(C)C)c(C#N)c1-c1ccc(Cl)cc1 4.82

One more compound: CSCCNNC(=O)c1sc(SC(C)C)c(C#N)c1-c1ccc(Cl)cc1 4.85

One more compound: COC(=O)[C@H](CCSC)NC(=O)c1sc(SC(C)C)c(C#N)c1-c1cccc(-c2ccccc2)c1 4.80
